- Test system: Staphylococcus aureus
- experiment_description: Antibacterial activity against Staphylococcus aureus ATCC 29213 assessed as bacterial growth inhibition incubated for 16 to 18 hrs by CLSI based susceptibility testing method
- Format: functional
- test_context: time 16-18 hrs
value_type: MIC (µg/mL)

- Cc1nc(/N=C2\NC(=O)/C(=C/c3cc(C)n(-c4ccc([N+](=O)[O-])c(C(F)(F)F)c4)c3C)S2)sc1C: 16
- Cc1cc(/C=C2\S/C(=N/c3nccs3)NC2=O)c(C)n1-c1ccc(N2CCOCC2)cc1: 16
- Cc1nc(/N=C2\NC(=O)/C(=C/c3cc(C)n(-c4ccc(N5CCOCC5)cc4)c3C)S2)sc1C: 64
- Cc1cc(/C=C2\S/C(=N/c3nccs3)NC2=O)c(C)n1-c1cccc(Cl)c1: 8
- COc1cccc(-n2c(C)cc(/C=C3\S/C(=N/c4nccs4)NC3=O)c2C)c1: 64
